- assayedTarget: PI3Kδ (Homo sapiens, UniProt O00329)
- Construct: made in house
- Sequence (O00329 whole entry): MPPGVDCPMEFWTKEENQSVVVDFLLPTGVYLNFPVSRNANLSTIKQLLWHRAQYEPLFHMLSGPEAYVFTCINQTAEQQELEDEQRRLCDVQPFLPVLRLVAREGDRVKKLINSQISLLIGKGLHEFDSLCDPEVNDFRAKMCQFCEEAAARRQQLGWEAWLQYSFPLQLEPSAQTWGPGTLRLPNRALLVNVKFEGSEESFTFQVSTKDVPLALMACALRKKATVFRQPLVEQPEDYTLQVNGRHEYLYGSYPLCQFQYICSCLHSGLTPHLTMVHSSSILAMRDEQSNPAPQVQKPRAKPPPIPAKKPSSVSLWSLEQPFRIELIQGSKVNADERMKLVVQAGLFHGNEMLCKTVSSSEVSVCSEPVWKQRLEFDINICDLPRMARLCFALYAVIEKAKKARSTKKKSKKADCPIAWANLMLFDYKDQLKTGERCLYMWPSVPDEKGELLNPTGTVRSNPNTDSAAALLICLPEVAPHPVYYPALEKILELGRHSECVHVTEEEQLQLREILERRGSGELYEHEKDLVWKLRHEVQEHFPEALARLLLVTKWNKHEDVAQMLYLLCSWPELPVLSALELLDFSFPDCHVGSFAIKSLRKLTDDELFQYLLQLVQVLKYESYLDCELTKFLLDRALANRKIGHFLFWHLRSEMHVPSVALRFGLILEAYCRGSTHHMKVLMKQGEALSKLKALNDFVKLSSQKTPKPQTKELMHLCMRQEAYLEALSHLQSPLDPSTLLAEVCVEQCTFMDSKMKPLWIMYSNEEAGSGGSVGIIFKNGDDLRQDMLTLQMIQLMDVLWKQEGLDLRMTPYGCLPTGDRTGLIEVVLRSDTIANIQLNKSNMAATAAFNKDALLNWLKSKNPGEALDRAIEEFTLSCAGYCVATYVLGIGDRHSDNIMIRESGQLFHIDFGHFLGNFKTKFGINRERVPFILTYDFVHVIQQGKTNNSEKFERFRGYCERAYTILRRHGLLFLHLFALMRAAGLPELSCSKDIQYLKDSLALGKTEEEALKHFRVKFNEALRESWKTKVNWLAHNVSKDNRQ
- Sequence (P27986 2-724 partner limits assumed): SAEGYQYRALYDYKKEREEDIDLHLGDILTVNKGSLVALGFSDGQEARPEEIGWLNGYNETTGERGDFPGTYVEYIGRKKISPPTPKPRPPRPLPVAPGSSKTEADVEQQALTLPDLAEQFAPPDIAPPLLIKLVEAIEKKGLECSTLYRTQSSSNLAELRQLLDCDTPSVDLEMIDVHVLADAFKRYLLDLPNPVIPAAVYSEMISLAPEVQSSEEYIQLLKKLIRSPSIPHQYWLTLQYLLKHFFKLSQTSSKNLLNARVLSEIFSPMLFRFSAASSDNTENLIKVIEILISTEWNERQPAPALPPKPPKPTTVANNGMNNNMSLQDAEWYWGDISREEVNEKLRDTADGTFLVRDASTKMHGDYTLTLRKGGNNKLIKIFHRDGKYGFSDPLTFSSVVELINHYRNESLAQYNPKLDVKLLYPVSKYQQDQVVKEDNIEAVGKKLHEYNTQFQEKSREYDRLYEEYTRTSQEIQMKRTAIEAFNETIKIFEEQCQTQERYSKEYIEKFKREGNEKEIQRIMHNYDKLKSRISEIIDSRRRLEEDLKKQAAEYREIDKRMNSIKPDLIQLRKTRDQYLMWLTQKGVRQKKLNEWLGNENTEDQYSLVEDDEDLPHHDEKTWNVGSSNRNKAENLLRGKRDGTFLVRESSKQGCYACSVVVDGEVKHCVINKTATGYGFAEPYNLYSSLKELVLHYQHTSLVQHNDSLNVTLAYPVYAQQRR
- experimentSummary: HTRF in vitro profiling assay for PI3K inhibition, delta isoform
- Assay type: biochemical
- assayConditions: in at least one experimental run; read-out: pIC50 against PI3Kδ (converted)
- Description: HTRF In vitro Profiling Assays for PI3K Inhibition The PI3-Kinase profiling assays were developed to measure the compound-dependent inhibition of the alpha, beta, delta, and gamma isoforms of PI3Kin an in vitro catalytic assay. […] The native PIP3 produced by PI 3-Kinase activity displaces biotin-PIP3 from the PH domain, resulting in the dissociation of the HTRF complex and a decrease in the fluorescence signal. […]
measurementName: IC50 (nM)

- compound: "Cc1c(Cl)cccc1Cn1c(CO)nc(=O)c2sc(N3CCOCC3)nc21"
  measurementName: "IC50"
  measuredNumber: 0.126

[P] Cc1c(Cn2c(-c3ccccc3)nc(=O)c3sc(N4CCOCC4)nc32)cccc1C(F)(F)F
[Q] CCc1nc(=O)c2sc(N3CCOCC3)nc2n1Cc1cccc(Cl)c1C
[R] Cc1c(Cl)cccc1Cn1c(CN)nc(=O)c2sc(N3CCOCC3)nc21
[S] Cc1c(Cl)cccc1Cn1c(C2CCCO2)nc(=O)c2sc(N3CCOCC3)nc21 (centres unmarked)
input: Arrange the 4 compounds from largest to smallest IC50. # format: label list in the order the request specifies
output: P, R, S, Q
